- Test system: NCI-H460
- Test protocol: NCI tumour cell line growth inhibition, 48 h
The source made the active and inactive calls. No stated cut-off is given here; in the data, active = GI50 up to about 1.1 µM and inactive = higher.
Choose one outcome from this list and give only that: class 1 = active, class 0 = inactive

Observe how each entry below is paired with its result.
CCOC(=O)c1cc(=O)oc2c1N(C)c1ncccc1N2	class 0
c1ccc(N2N=NC3C4CC(C5c6ccccc6C45)C32)cc1 (stereo not drawn)	class 0
CN(C)c1ccc(C2CC(C)(O)Oc3cc4c(cc32)OCO4)cc1 (stereo not drawn)	class 0
O=C(O)c1cnc2[nH]ccn2c1=O	class 0
CCOc1ccccc1/N=N/C1C(=O)N(C(=O)CC(=O)Nc2ccccc2C)N=C1C (stereo not drawn)	class 0

Hi, sorry to bother you, what did the test record for O=C1OC([C@H](O)c2cccnc2)c2ccccc21 (stereo partly drawn) ?
class 0

Hi, sorry to bother you, what did the test record for `O=C(O)[C@H](NS(=O)(=O)c1ccc([N+](=O)[O-])cc1)c1ccccc1` ?
class 0

Hi, sorry to bother you, what did the test record for `CC(C)c1cccc(C(C)C)c1OS(=O)(=O)NC(=O)OC(C(F)(F)F)C(F)(F)F` ?
class 0

Hi, sorry to bother you, what did the test record for `CCOC(=O)c1ccc(C(=O)/C(C#N)=C2\CCCN2)n1C` ?
class 0

Hi, sorry to bother you, what did the test record for `O=c1c2c(nc3n1CCC3)sc1c(O)c(Br)ccc12` ?
class 0

Hi, sorry to bother you, what did the test record for `Cc1nc2c(n1-c1ccc(Br)cc1)C(=O)c1ccccc1C2=O` ?
class 0

Hi, sorry to bother you, what did the test record for CCCC/C=C/C1Cc2ccccc2CN1S(=O)(=O)c1ccc(C)cc1 (stereo not drawn) ?
class 0

Hi, sorry to bother you, what did the test record for `Cc1c2ccnc(C(=O)NCCN(C)C)c2cc2c3cc(O)ccc3n(C)c12` ?
class 1
